Data credit: paper doi:10.1101/2024.08.19.608619

target: COX1(h) (Homo sapiens); construct: purchased Eurofins Cerep (SafetyScreen44), recognised from the panel format; assay: In vitro CEREP profiling, COX1(h); assay type: biochemical; conditions: test compound concentration 10 uM; Enzyme and Cell-based assays
Sequence (P23219 24-599): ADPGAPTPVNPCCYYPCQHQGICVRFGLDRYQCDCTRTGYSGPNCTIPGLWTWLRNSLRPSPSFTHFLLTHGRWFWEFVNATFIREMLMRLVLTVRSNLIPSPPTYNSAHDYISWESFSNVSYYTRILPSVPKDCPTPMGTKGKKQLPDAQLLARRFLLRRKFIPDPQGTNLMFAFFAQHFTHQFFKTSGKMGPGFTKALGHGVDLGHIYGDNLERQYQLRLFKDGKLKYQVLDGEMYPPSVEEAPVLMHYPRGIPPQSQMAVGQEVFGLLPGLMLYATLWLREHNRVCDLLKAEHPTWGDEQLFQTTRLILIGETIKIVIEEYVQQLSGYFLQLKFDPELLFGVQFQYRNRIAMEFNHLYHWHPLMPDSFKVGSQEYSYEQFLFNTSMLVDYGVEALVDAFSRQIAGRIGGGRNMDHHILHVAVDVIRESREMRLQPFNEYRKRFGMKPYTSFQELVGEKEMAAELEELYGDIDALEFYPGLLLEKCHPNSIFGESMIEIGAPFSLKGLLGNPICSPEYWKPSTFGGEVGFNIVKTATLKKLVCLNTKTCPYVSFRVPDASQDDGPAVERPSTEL
Answer each item with its documented perc_inhibition: % inhibition of control enzyme activity, COX1(h).
State the value with its unit after it.

// known answers, use as guide
> print(dat)
                                smiles.code             test.system  meas.value
1  CNCc1cc(-c2cc3c(N[C@@H](c4ccc5c(c4)S(=O)(=O)CCC5)C(C)C)ncnc3[nH]2)co1  COX1(h) (Homo sapiens)         -6%
2  COc1ccc([C@H](Cc2nnn[nH]2)NC(=O)c2ncnc3[nH]ccc23)cc1  COX1(h) (Homo sapiens)         17%
3  CC(C)[C@@H](Nc1ncnc2[nH]c(-c3cnn(C)c3C#N)cc12)c1ccc2c(n1)OCCO2  COX1(h) (Homo sapiens)        -34%
4  CC(C)[C@H](Nc1ncnc2[nH]c(-c3cnn(C)c3C#N)cc12)c1ccc2c(n1)OCCO2  COX1(h) (Homo sapiens)        -39%
5  CC(C)[C@H](Nc1ncnc2[nH]ccc12)c1ccc2c(c1)S(=O)(=O)CCC2  COX1(h) (Homo sapiens)         85%

Go through the list and state perc_inhibition: % inhibition of control enzyme activity, COX1(h) for each entry.
1. Cn1ncc(-c2cc3c(N[C@@H](c4ccc5c(n4)OCCO5)C(C)(C)C)ncnc3[nH]2)c1C#N
2. C[C@H](C(=O)O)[C@@H](NC(=O)c1ncnc2[nH]ccc12)c1ccc(Br)cc1

Data returned:
1. -14%
2. 14%

----------
experiment: Permeability Papp (AB) MDR1/MDCKII; settings: In vitro MDR1-MDCKII permeability, A to B, no inhibitor
Assignment: determine reported papp_a_to_b_mean for the given compounds.
Give bare numbers, in ×10⁻⁶ cm/s.

> print(dat)
                                   compound  display.unit  meas.value
1  CC(C)(C)[C@H](Nc1ncnc2[nH]c(-c3cnn(CC(N)=O)c3)cc12)c1ccc2c(c1)OCCO2 (single isomer, unassigned) [ASAP-0012332]    ×10⁻⁶ cm/s        1.01
2  CC(C)[C@H](Nc1ncnc2[nH]c(-c3cnn(CC(=O)N(C)C)c3)cc12)c1ccc2c(c1)S(=O)(=O)CCC2    ×10⁻⁶ cm/s        1.17
3  CC(C)[C@@H](Nc1ncnc2[nH]c(-c3ccc4nnn(C)c4c3)cc12)c1ccc2c(c1)S(=O)(=O)CCC2    ×10⁻⁶ cm/s       0.827
4  CNC(=O)c1cccc(-c2cc3c(N[C@@H](c4ccc5c(c4)S(=O)(=O)CCC5)C(C)C)ncnc3[nH]2)c1    ×10⁻⁶ cm/s       0.627
5  CC(C)[C@H](Nc1ncnc2[nH]c(-c3cnn(CC(N)=O)c3)cc12)c1ccc2c(c1)S(=O)(=O)CCC2 (single isomer, unassigned)    ×10⁻⁶ cm/s      0.0832

Data request: Consider the compound COc1ccc(C(NC(=O)c2ncnc3[nH]ccc23)C(C)c2nnn[nH]2)cc1 (mixture of isomers) and give its measured papp_a_to_b_mean.
Data returned: 1.13

----------
experiment: Hepatic microsomal stability, HLM; format: in vitro ADME, human; details: In vitro human liver microsomal stability
I'd be grateful if you could share measured perc_remaining for these entries.
Numbers only, in %.

> print(dat)
                                   compound  display.unit  meas.value
1  CC(C)[C@@H](Nc1ncnc2[nH]c(-c3cnn(CC(=O)N(C)C)c3)cc12)c1ccc2c(c1)S(=O)(=O)CCC2 [ASAP-0013747]             %         1.0
2  CC(C)[C@@H](Nc1ncnc2[nH]c(-c3cnn(C)c3C#N)cc12)c1ccc2c(c1)OCCO2 (racemic) [ASAP-0008275]             %        25.0
3  COc1ccc([C@@H](Cc2nnn[nH]2)NC(=O)c2ncnc3[nH]ccc23)cc1 [ASAP-0008340]             %        86.0

Data request: # input compound: O=C(Nc1cccc2c(C(=O)N[C@H]3c4ccccc4C[C@H]3C(=O)O)c[nH]c12)NC1CC1 (racemic) [ASAP-0000627] ; wanted: its perc_remaining
Data returned: 88.0

----------
system: CYP; test: CYP inhibition; assay type: in vitro ADME; conditions: isoform 1A2; In vitro CYP inhibition pooled
measure_name: pIC50
Numbers only, as −log10 of the molar value.

// known answers, use as guide
> print(dat)
                                smiles.code  measure.name  meas.value
1  CNCc1cc(-c2cc3c(N[C@@H](c4ccc5c(c4)S(=O)(=O)CCC5)C(C)C)ncnc3[nH]2)co1         pIC50        4.31
2  CC(C)[C@@H](Nc1ncnc2[nH]c(-c3cnn(C)c3C#N)cc12)c1ccc2c(n1)OCCO2         pIC50        5.05

Consider the additional molecule presented here.
Data request: For the molecule `CC(C)[C@H](Nc1ncnc2[nH]c(-c3cnn(C)c3C#N)cc12)c1ccc2c(n1)OCCO2` , what pIC50 is on record?
Data returned: 4.45

----------
I'd be grateful if you could share measured t_half for these entries.
assay: Hepatic microsomal stability, HLM; assay type: in vitro ADME, human; conditions: In vitro human liver microsomal stability
Numbers only, in min.

Recorded t_half, per entry:
> print(dat)
                                   compound  display.unit  meas.value
1  CC(C)[C@H](Nc1ncnc2[nH]cc(C(=O)NC3CC3)c12)c1ccc2c(c1)S(=O)(=O)CCC2 (racemic) [ASAP-0008647]           min        57.0
2  CCNC(=O)c1cc2c(N[C@H](c3ccc4c(c3)S(=O)(=O)CCC4)C(C)C)ncnc2[nH]1 [ASAP-0012325]           min        15.4
3  CNC(=O)c1c[nH]c2ncnc(N[C@@H](c3ccc4c(c3)OCCO4)C(C)C)c12 [ASAP-0008406]           min        21.2

Data request: Requested read-out: t_half. Entry: CNC(=O)c1cc2c(N[C@@H](c3ccc4c(c3)S(=O)(=O)CCC4)C(C)C)ncnc2[nH]1 (single isomer, unassigned) [ASAP-0012346]
Data returned: 2.4

----------
Record form. Attribute: perc_inhibition (% inhibition of the binding of a ligand specific for each target). Fill in for each entry.
molecular target: 5-HT2B (h) (Homo sapiens, UniProt P41595); construct: purchased Eurofins Cerep (SafetyScreen44), recognised from the panel format; test: In vitro CEREP profiling, 5-HT2B (h) (agonist radioligand); type: binding; settings: test compound concentration 10 uM
Sequence (P41595 whole entry): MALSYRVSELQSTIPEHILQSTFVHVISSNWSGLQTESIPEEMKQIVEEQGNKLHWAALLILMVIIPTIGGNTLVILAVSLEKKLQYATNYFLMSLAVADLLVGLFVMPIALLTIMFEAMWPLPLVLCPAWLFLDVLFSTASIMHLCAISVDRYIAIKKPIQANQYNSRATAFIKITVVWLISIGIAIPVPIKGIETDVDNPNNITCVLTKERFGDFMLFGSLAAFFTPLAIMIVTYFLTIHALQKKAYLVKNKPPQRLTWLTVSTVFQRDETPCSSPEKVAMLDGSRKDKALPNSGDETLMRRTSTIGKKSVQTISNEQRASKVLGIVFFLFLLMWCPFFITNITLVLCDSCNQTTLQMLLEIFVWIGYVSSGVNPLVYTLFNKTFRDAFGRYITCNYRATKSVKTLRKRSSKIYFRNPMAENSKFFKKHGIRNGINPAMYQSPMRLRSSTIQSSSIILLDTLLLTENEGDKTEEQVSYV

These recorded examples may help you get a feel for the data.
> print(dat)
                                smiles.code  meas.value
1  CC(C)[C@@H](Nc1ncnc2[nH]c(-c3cnn(C)c3C#N)cc12)c1ccc2c(n1)OCCO2         40%
2  CC(C)[C@H](Nc1ncnc2[nH]c(-c3cnn(C)c3C#N)cc12)c1ccc2c(n1)OCCO2         18%
3  COc1ccc([C@H](Cc2nnn[nH]2)NC(=O)c2ncnc3[nH]ccc23)cc1        -33%

Lab note: each compound below needs its perc_inhibition (% inhibition of the binding of a ligand specific for each target) filled in.
1. C[C@H](C(=O)O)[C@@H](NC(=O)c1ncnc2[nH]ccc12)c1ccc(Br)cc1
2. Cn1ncc(-c2cc3c(N[C@@H](c4ccc5c(n4)OCCO5)C(C)(C)C)ncnc3[nH]2)c1C#N
3. CC(C)[C@H](Nc1ncnc2[nH]ccc12)c1ccc2c(c1)S(=O)(=O)CCC2
4. CNCc1cc(-c2cc3c(N[C@@H](c4ccc5c(c4)S(=O)(=O)CCC5)C(C)C)ncnc3[nH]2)co1

Data returned:
1: -4%; 2: -5%; 3: 54%; 4: -11%

----------
system: Ca2+ channel (L, dihydropyridine site); experiment: In vitro CEREP profiling, Ca2+ channel (L, dihydropyridine site) (antagonist radioligand); type: binding; conditions: test compound concentration 10 uM
measure_name: perc_inhibition (% inhibition of the binding of a ligand specific for each target)

Recorded perc_inhibition (% inhibition of the binding of a ligand specific for each target), per entry:
> print(dat)
                                   molecule                             test.system  meas.value
1  CC(C)C(Nc1ncnc2[nH]c(C(=O)NC3CCN(C)C3)cc12)c1ccc2c(c1)S(=O)(=O)CCC2 (stereo not drawn)  Ca2+ channel (L, dihydropyridine site)         -6%
2  CNCc1cc(-c2cc3c(N[C@@H](c4ccc5c(c4)S(=O)(=O)CCC5)C(C)C)ncnc3[nH]2)co1  Ca2+ channel (L, dihydropyridine site)         -3%
3  Cn1ncc(-c2cc3c(N[C@@H](c4ccc5c(n4)OCCO5)C(C)(C)C)ncnc3[nH]2)c1C#N  Ca2+ channel (L, dihydropyridine site)         21%

Each of the following entries comes with a recorded value; kindly state perc_inhibition (% inhibition of the binding of a ligand specific for each target) for each.
1. Cc1nn(C)cc1-c1cc2c(NC(c3ccc4c(c3)S(=O)(=O)CCC4)C(C)C)ncnc2[nH]1 (stereo not drawn)
2. CC(C)[C@H](Nc1ncnc2[nH]ccc12)c1ccc2c(c1)S(=O)(=O)CCC2
3. CC(C)[C@@H](Nc1ncnc2[nH]c(-c3cnn(C)c3C#N)cc12)c1ccc2c(n1)OCCO2
4. C[C@H](C(=O)O)[C@@H](NC(=O)c1ncnc2[nH]ccc12)c1ccc(Br)cc1
5. COc1ccc([C@H](Cc2nnn[nH]2)NC(=O)c2ncnc3[nH]ccc23)cc1
6. CC(C)[C@H](Nc1ncnc2[nH]c(-c3cnn(C)c3C#N)cc12)c1ccc2c(n1)OCCO2

Data returned:
1. 12%
2. 12%
3. 10%
4. -12%
5. -22%
6. 9%
